B1: SETD8 (parent)
chain: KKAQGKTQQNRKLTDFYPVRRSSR

variants of: B1; test: protein stability index of a GFP-peptide fusion (GPS, HEK-293T) (PSI 1-6); higher = more stable; settings: c terminus: a fixed tail appended;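 note: lentivirally expressed fusions sorted by FACS into six bins by GFP to DsRed ratio, PSI derived from sequencing read proportions per bin multiplied by bin number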

{"columns": ["macromoleculeSequence", "protein stability index"],
 "data": [
  ["KKAQGKTQQDRKLTDFYPVRRSSR [N10D]", 4.38],
  ["KKAQGKTQCNRKLTDFYPVRRSSR [Q9C]", 3.93],
  ["KKAQGKTWQNRKLTDFYPVRRSSR [Q8W]", 3.29],
  ["KKAQGKTQQNRKLWDFYPVRRSSR [T14W]", 3.4],
  ["KKAQGKTQQNHKLTDFYPVRRSSR [R11H]", 3.68],
  ["KKAQGKTQQNRKLSDFYPVRRSSR [T14S]", 2.72],
  ["KFAQGKTQQNRKLTDFYPVRRSSR [K2F]", 1.97],
  ["KKAQGKTQQNRKLTDFYPVWRSSR [R20W]", 3.22],
  ["KKGQGKTQQNRKLTDFYPVRRSSR [A3G]", 3.27],
  ["KKAQGKTQQNRKATDFYPVRRSSR [L13A]", 2.67],
  ["KKAQGKTQQNRKLNDFYPVRRSSR [T14N]", 3.49]
]}

Recorded values, source the supplement of paper PMC10567573.
